# Assay notes: RP, Thermo Scientific Acclaim RSLC 120 C18, 100 × 2.1 mm, 2.2 µm, 30 °C, 0.2 mL/min, estimated dead time 1.1 min; A: 90% water + 10% methanol + 0.01% formic acid + 5 mM ammonium formate, pH 3.61; B: methanol + 0.01% formic acid + 5 mM ammonium formate, pH 3.61; gradient (min/%B) 0/1 1/1 2/39 13/99.9 15/99.9 15.1/1 20.1/1
# Stated conditions: stereoisomer not certain
Use yes (1) when the recorded LC retention time is no lower than 6 min; use no (0) when it is lower.

Look over these answered cases.
[[record]]
molecule = "CCOC(=O)c1ccccc1C(=O)OCC [Phthalate-Diethyl]"
class_label = "yes (1)"

[[record]]
molecule = "Cc1c(NC=O)c(=O)n(-c2ccccc2)n1C [Antipyrine- 4-Formylamino]"
class_label = "no (0)"

[[record]]
molecule = "CC(C)(C)C(NC(=O)c1nn(CCCCCF)c2ccccc12)C(N)=O (centres undefined)"
class_label = "yes (1)"

[[record]]
molecule = "CNC(=O)Oc1cccc(N=CN(C)C)c1 [Formetanate]"
class_label = "no (0)"

[[record]]
molecule = "N=c1nc(N2CCCCC2)cc(N)n1O"
class_label = "no (0)"


input: Test whether the molecule CCSc1ccc2c(c1)N(CCCN1CCN(C)CC1)c1ccccc1S2 records LC retention time of 6 min or higher.
output: yes (1)

input: Test whether the molecule c1ccc(C(c2ccccc2)C2CCCCN2)cc1 (centres undefined) records LC retention time of 6 min or higher.
output: yes (1)

input: Test whether the molecule COP(=S)(OC)Oc1nc(Cl)c(Cl)cc1Cl records LC retention time of 6 min or higher.
output: yes (1)

Taken from the RepoRT retention time repository (doi:10.1021/acs.analchem.2c02893).
